These measurements were taken from paper PMC5420417.

target: aldose reductase (AR) (Rattus norvegicus); construct: The rat lenses were homogenized in 0.1 M sodium phosphate buffer (pH 6.2) and centrifuged; from tissue; host or cells: lens of Sprague-Dawley rats (homogenate supernatant); assay: Aldose reductase (AR) inhibitory activity, rat lens homogenate, decrease of β-NADPH absorption at 340 nm; type: biochemical, Sprague-Dawley rats; conditions: rat lens AR, DL-glyceraldehyde substrate; mean ± SD, triplicate; read-out: IC50 AR
assay_endpoint: IC50 (µM)

Recorded results for 2 molecules are shown here.
# molecule, IC50 (µM)
rows = [
    ("O=C(/C=C/c1ccc(O)c(O)c1)OC1CC(O)(C(=O)O)CC(O)C1O (stereo not shown) [Compound 12, 3-O-caffeoylquinic acid]", 4.54),
    ("O=C(O)CC1(CC(=O)O)CCCC1 [TMG, 3,3′-Tetramethylene glutaric acid, reference compound]", 6.58),
]

[P] COc1cc2ccc(=O)oc2cc1O [Compound 1, scopoletin]
[Q] C[C@@H]1O[C@@H](OC[C@H]2O[C@@H](Oc3c(-c4ccc(O)c(O)c4)oc4cc(O)cc(O)c4c3=O)[C@H](O)[C@@H](O)[C@@H]2O)[C@H](O)[C@H](O)[C@H]1O [Compound 11, rutin]
[R] COC(=O)C1(O)CC(OC(=O)/C=C/c2ccc(O)c(O)c2)C(O)C(OC(=O)/C=C/c2ccc(O)c(O)c2)C1 (stereo not shown) [Compound 16]
// sort entries: IC50, high to low To answer, arrange all of the labels according to the requested order.
P, Q, R

----------
test system: advanced glycation endproducts (AGEs) formation; assay: AGEs formation inhibitory activity, bovine serum albumin with fructose and glucose, fluorescence; format: biochemical; conditions: BSA 10 mg/mL, 0.4 M fructose and glucose, 60°C, 2 days; mean ± SD; ND = not detected
assay_endpoint: IC50 (µM)

# molecule, unit_string, IC50
measured = [
    ("O=c1c(O[C@@H]2O[C@H](CO)[C@@H](O)[C@H](O)[C@H]2O)c(-c2ccc(O)c(O)c2)oc2cc(O)cc(O)c12", "µM", 67.4),
    ("COC(=O)C1(O)CC(OC(=O)/C=C/c2ccc(O)c(O)c2)C(O)C(OC(=O)/C=C/c2ccc(O)c(O)c2)C1 (stereo not drawn)", "µM", 44.5),
    ("O=C(/C=C/c1ccc(O)c(O)c1)OC1CC(O)(C(=O)O)CC(OC(=O)/C=C/c2ccc(O)c(O)c2)C1O (stereo not drawn)", "µM", 31.8),
]

[I] O=C(/C=C/c1ccc(O)c(O)c1)OC1CC(O)(C(=O)O)CC(O)C1O (stereo not drawn)
[II] COc1cc2ccc(=O)oc2cc1O[C@@H]1O[C@H](CO)[C@@H](O)[C@H](O)[C@H]1O
[III] COc1cc(OC2OC(CO)C(O)C(O)C2O)cc(O)c1C(C)=O (stereo not drawn)
# ascending order, key=IC50 To answer, arrange all of the labels according to the requested order.
II, I, III
(II: 82.4 µM, I: 176 µM, III: 1050 µM)

[a] COc1cc(-c2cc(=O)c3c(O)c(OC)c(O)cc3o2)ccc1O
[b] COc1cc2ccc(=O)oc2cc1O
[c] COc1cc(O)c2c(=O)cc(-c3ccc(O)cc3)oc2c1
// sort entries: IC50, high to low To answer, arrange all of the labels according to the requested order.
c, a, b
(c: 312 µM, a: 170 µM, b: 20.7 µM)

[a] COc1c(O)cc2oc(-c3ccc(O)c(O)c3)c(OC3OC(CO)C(O)C(O)C3O)c(=O)c2c1O (stereo not drawn) [Compound 8, patuletin-3-O-glucoside]
[b] C[C@@H]1O[C@@H](OC[C@H]2O[C@@H](Oc3c(-c4ccc(O)c(O)c4)oc4cc(O)cc(O)c4c3=O)[C@H](O)[C@@H](O)[C@@H]2O)[C@H](O)[C@H](O)[C@H]1O
Which entry has a larger number for IC50, a or b ? Output the label that corresponds to your choice.
a

----------
target: aldose reductase (AR) (Rattus norvegicus, UniProt P07943); construct: The rat lenses were homogenized in 0.1 M sodium phosphate buffer (pH 6.2) and centrifuged; from tissue; host or cells: lens of Sprague-Dawley rats (homogenate supernatant); assay: Aldose reductase (AR) inhibitory activity, rat lens homogenate, decrease of β-NADPH absorption at 340 nm; format: biochemical, Sprague-Dawley rats; settings: rat lens AR, DL-glyceraldehyde substrate; mean ± SD, triplicate; read-out: IC50 AR
pIC50: −log10 of the molar value.
assay_endpoint: pIC50

# entry_smiles, assay_endpoint, value_reported
data = [
    ("COc1cc2ccc(=O)oc2cc1O[C@@H]1O[C@H](CO)[C@@H](O)[C@H](O)[C@H]1O", "pIC50", 3.88),
    ("COc1cc(-c2cc(=O)c3c(O)c(OC)c(O)cc3o2)ccc1O", "pIC50", 3.96),
]

----------
molecular target: aldose reductase (AR) (Rattus norvegicus); construct: The rat lenses were homogenized in 0.1 M sodium phosphate buffer (pH 6.2) and centrifuged; from tissue; host or cells: lens of Sprague-Dawley rats (homogenate supernatant); test: Aldose reductase (AR) inhibitory activity, rat lens homogenate, decrease of β-NADPH absorption at 340 nm; assay type: biochemical, Sprague-Dawley rats
assay_endpoint: IC50 (µM)
Just the number in µM, nothing appended.

Record COc1c(O)cc2oc(-c3ccc(O)cc3)cc(=O)c2c1O , field IC50: 2.93

----------
Recorded IC50 for the following compounds
system: advanced glycation endproducts (AGEs) formation; assay: AGEs formation inhibitory activity, bovine serum albumin with fructose and glucose, fluorescence; type: biochemical; settings: BSA 10 mg/mL, 0.4 M fructose and glucose, 60°C, 2 days; mean ± SD; ND = not detected
Just the number in µM, nothing appended.

# compound, unit_string, IC50
records = [
    ("N=C(N)NN [AG, Aminoguaidine, reference compound]", "µM", 415),
    ("O=C(/C=C/c1ccc(O)c(O)c1)OC1CC(OC(=O)/C=C/c2ccc(O)c(O)c2)(C(=O)O)CC(O)C1O (stereo not shown) [Compound 13, 1,3-di-O-caffeoylquinic acid]", "µM", 24.9),
    ("COc1c(O)cc2oc(-c3ccc(O)cc3)cc(=O)c2c1O [Compound 4, hispidulin]", "µM", 186),
]

Please examine the following record next.
Record O=C(/C=C/c1ccc(O)c(O)c1)OC1CC(O)(C(=O)O)CC(O)C1OC(=O)/C=C/c1ccc(O)c(O)c1 (stereo not shown) [Compound 14, 3,4-di-O-caffeoylquinic acid] , field IC50: 124
